System name: T1, activated Protein C (APC) (human, UniProt P04070 43-197; P04070 212-461)
T1 construct: also called human plasma APC
T1 sequence (P04070 43-197, chain 1 of 2): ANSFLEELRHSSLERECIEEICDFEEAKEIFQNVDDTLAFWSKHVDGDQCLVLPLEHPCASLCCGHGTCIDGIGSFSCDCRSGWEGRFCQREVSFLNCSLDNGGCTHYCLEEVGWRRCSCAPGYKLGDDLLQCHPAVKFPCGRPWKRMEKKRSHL
T1 sequence (P04070 212-461, chain 2 of 2): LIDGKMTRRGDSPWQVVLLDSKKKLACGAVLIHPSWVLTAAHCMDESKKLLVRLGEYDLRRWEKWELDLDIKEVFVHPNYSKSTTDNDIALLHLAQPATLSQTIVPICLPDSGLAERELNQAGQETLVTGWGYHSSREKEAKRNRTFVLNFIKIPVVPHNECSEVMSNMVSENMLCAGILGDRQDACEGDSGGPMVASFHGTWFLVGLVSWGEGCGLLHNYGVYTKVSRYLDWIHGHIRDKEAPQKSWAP
Protocol notes: ratio of rate constants, APC over fXa
Reported property: inhibition of APC/fXa (fold)
Number in fold, nothing else.

Ask: Look up inhibition of APC/fXa of FL α1AT Pitts C232S P2R (other, E. coli, purified; also called P2.F10; P2.G8) SDPQGDAAQKTDTSHHDQDHPTFNKITPNLAEFAFSLYRQLAHQSNSTNIFFSPVSIATAFAMLSLGTKADTHDEILEGLNFNLTEIPEAQIHEGFQELLRTLNQPDSQLQLTTGNGLFLSEGLKLVDKFLEDVKKLYHSEAFTVNFGDTEEAKKQINDYVEKGTQGKIVDLVKELDRDTVFALVNYIFFKGKWERPFEVKDTEEEDFHVDQVTTVKVPMMKRLGMFNIQHSKKLSSWVLLMKYLGNATAIFFLPDEGKLQHLENELTHDIITKFLENEDRRSASLHLPKLSITGTYDLKSVLGQLGITKVFSNGADLSGVTEEAPLKLSKAVHKAVLTIDEKGTEAAGAMFLEAIRRSIPPEVKFNKPFVFLMIEQNTKSPLFMGKVVNPTQK and report it.
Result: 12.8

The reported measurements were obtained from patent US20160311887A1.
